Every entry's value here was drawn from the supplement of paper PMC8728848.

- Tgt: Neu5Ac(a2-3)Gal(b1-3)[Neu5Ac(a2-6)]GalNAc
- Procedure summary: glycan array binding signal (z-score within array); higher = stronger binding
- Conditions: glycan notation: IUPAC condensed, linker removed
The sample as a whole holds a higher share of the strongest signals than the screen did.
Below, each entry is listed with its recorded glycan array binding signal (z-score).

>  <Binder>
MAL-II (Maackia amurensis), P93248 (protein) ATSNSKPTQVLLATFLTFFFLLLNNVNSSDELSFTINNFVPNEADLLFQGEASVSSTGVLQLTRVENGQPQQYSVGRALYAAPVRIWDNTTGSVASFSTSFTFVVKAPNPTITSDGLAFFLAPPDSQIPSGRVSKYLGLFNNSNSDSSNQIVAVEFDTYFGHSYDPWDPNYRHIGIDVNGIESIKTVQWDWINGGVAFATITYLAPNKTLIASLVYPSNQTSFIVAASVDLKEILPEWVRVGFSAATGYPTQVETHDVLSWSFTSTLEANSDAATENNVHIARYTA

>  <glycan array binding signal (z-score)>
7.48

$$$$
>  <Binder>
Gal 9 (Canis lupus) (protein) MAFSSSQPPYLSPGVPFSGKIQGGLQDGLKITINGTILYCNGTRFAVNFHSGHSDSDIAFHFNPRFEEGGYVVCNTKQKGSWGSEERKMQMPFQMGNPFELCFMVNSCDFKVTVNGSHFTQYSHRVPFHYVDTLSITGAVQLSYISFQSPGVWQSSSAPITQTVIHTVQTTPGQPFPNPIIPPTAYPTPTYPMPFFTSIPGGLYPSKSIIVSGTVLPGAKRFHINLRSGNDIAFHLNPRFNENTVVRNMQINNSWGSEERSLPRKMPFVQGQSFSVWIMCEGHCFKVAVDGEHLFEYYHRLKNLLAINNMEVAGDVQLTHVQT

>  <glycan array binding signal (z-score)>
-0.055

$$$$
>  <Binder>
CTLX (Homo sapiens), Q6UXS0 (protein) SLCPLFWMEFKGHCYRFFPLNKTWAEADLYCSEFSVGRKSAKLASIHSWEENVFVYDLVNSCVPGIPADVWTGLHDHRQEGQFEWTDGSSYDYSYWDGSQPDDGVHADPEEEDCVQIWYRPTSALRSWNDNTCSRKFPFVCKIPSLTIH

>  <glycan array binding signal (z-score)>
0.498

$$$$
>  <Binder>
Eosinophil cationic protein (ECP) (Homo sapiens), P12724 (protein) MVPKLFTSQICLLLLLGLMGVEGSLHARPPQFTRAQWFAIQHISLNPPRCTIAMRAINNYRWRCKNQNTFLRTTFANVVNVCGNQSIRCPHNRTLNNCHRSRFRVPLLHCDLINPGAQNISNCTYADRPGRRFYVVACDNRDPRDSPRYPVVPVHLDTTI

>  <glycan array binding signal (z-score)>
-0.097

$$$$

Note: attention shifts to another entry.
Per the record, DC-ASGPR-short (Homo sapiens) (protein) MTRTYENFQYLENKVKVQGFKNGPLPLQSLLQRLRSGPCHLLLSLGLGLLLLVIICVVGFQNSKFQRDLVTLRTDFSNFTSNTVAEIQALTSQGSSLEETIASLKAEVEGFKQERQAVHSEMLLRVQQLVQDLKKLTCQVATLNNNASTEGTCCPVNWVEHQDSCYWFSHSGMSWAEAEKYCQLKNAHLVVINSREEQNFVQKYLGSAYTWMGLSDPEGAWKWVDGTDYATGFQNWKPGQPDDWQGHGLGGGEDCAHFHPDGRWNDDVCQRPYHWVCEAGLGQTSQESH has glycan array binding signal (z-score) of -0.224
